Target: UniProt:P23977
Assay: Binding affinity Sprague-Dawley rats using [3H]WIN-35428 ligand
measurementName: Ki (nM)

structureString	measured
C[C@H]1CN(CCCn2c3ccccc3c3cc(N)ccc32)C[C@H](C)N1	2400

P: C[C@H]1CN(CCCn2c3ccccc3c3cc([N+](=O)[O-])ccc32)C[C@H](C)N1
Q: C[C@@H]1CN(CCCn2c3ccccc3c3ccccc32)C[C@H](C)N1
R: Clc1ccccc1N1CCN(CCCn2c3ccccc3c3ccccc32)CC1
S: C[C@H]1CN(CCCN(c2ccccc2)c2ccccc2)C[C@H](C)N1
T: c1ccc(N2CCN(CCCn3c4ccccc4c4ccccc43)CC2)cc1
q: Rank the 5 compounds: largest Ki first, smallest last. Arrange the labels as the request states and list them.
a: R, T, S, Q, P
(R: 113000 nM, T: 4930 nM, S: 813 nM, Q: 224 nM, P: 109 nM)

A: C[C@H]1CN(CCCn2c3ccccc3c3ccccc32)C[C@H](C)N1CCCc1ccccc1
B: C[C@H]1CN(CCCN(c2ccccc2)c2ccccc2)C[C@H](C)N1CCCc1ccccc1
q: Select the item with the higher value of Ki from the options A and B listed. Could you answer with the label of the item you picked?
a: A
(A: 263 nM, B: 61 nM)

1: C[C@H]1CN(CCCn2c3ccccc3c3ccccc32)C[C@H](C)N1C
2: C[C@H]1CN(CCCn2c3ccc(Br)cc3c3cc(Br)ccc32)C[C@H](C)N1
q: Problem: Given the entries 1 and 2 , determine which has the lower reported Ki. Could you answer with the label of the item you picked?
a: 1
(1: 436 nM, 2: 3890 nM)

* * *

Biological target: Sodium-dependent dopamine transporter (Rattus norvegicus)
Test: Binding affinity Sprague-Dawley rats using [3H]WIN-35428 ligand
measurementName: Ki (µM)
Expressed in µM, but write only the number.

structureString	subjectOfTest	displayUnit	measured
C[C@H]1CN(CCCn2c3ccc([N+](=O)[O-])cc3c3cc([N+](=O)[O-])ccc32)C[C@H](C)N1	Sodium-dependent dopamine transporter (Rattus norvegicus)	µM	174

Now for another entry.
q: What reported Ki corresponds to "C[C@@H]1CN(CCCn2c3ccc(Br)cc3c3cc(Br)cc(Br)c32)C[C@@H](C)N1" on Sodium-dependent dopamine transporter (Rattus norvegicus)?
a: 30.3

* * *

Biological target: Sodium-dependent dopamine transporter (Rattus norvegicus, UniProt P23977)
Sequence (P23977 whole entry): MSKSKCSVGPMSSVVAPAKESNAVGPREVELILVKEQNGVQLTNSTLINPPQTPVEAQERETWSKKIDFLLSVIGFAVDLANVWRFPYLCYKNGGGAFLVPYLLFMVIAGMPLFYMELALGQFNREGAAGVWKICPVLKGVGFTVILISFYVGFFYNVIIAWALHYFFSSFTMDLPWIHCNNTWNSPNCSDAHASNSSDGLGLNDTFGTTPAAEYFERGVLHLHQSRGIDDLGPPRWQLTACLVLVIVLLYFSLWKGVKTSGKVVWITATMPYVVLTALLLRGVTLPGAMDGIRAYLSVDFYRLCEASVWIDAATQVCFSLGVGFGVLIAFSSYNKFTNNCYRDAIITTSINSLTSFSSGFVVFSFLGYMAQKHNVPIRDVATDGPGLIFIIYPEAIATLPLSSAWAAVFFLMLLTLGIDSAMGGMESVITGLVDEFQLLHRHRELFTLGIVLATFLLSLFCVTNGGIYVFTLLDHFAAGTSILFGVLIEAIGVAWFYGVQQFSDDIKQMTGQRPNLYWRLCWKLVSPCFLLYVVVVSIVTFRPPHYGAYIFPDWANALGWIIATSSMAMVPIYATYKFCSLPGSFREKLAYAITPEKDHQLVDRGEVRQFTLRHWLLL
Test: Inhibition of Dopamine uptake in male Sprague-Dawley rats using [3H]DA ligand
pIC50: −log10 of the molar value.
measurementName: pIC50

structureString	measured
C[C@@H]1CN(CCCn2c3ccccc3c3ccccc32)C[C@H](C)N1	6.85

I: C[C@H]1CN(CCCn2c3ccccc3c3ccccc32)C[C@H](C)N1C
II: C[C@H]1CN(CCCn2c3ccccc3c3cc([N+](=O)[O-])ccc32)C[C@H](C)N1
III: C[C@H]1CN(CCCN(c2ccccc2)c2ccccc2)C[C@H](C)N1
IV: C[C@H]1CN(CCCN(c2ccccc2)c2ccccc2)C[C@H](C)N1CCCc1ccccc1
q: Arrange the 4 compounds by rising pIC50, starting with the smallest. Arrange the labels as the request states and list them.
a: III, I, II, IV

* * *

Target: Sigma intracellular receptor 2 (Rattus norvegicus, UniProt Q5U3Y7)
Sequence (Q5U3Y7 whole entry, looked up): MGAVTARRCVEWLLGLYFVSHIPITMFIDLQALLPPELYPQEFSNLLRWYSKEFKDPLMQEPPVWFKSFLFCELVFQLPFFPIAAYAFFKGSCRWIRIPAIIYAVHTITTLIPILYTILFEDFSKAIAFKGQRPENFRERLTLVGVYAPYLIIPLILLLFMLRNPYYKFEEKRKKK
Experiment: The compound was tested for binding affinity of Sigma opioid receptor type 2 in rat liver membranes using [3H]DTG ligand
pKi: −log10 of the molar value.
measurementName: pKi

structureString	subjectOfTest	pKi
C[C@H]1CN(CCCn2c3ccccc3c3ccccc32)C[C@H](C)N1CCCc1ccccc1	Sigma intracellular receptor 2 (Rattus norvegicus, UniProt Q5U3Y7)	6.84
C[C@H]1CN(CCCn2c3ccccc3c3cc([N+](=O)[O-])ccc32)C[C@H](C)N1	Sigma intracellular receptor 2 (Rattus norvegicus, UniProt Q5U3Y7)	6.71
C[C@H]1CN(CCCn2c3ccc(Br)cc3c3cc(Br)ccc32)C[C@H](C)N1	Sigma intracellular receptor 2 (Rattus norvegicus, UniProt Q5U3Y7)	6.17
C[C@H]1CN(CCCN(c2ccccc2)c2ccccc2)C[C@H](C)N1CCCc1ccccc1	Sigma intracellular receptor 2 (Rattus norvegicus, UniProt Q5U3Y7)	6.74
C[C@H]1CN(CCCn2c3ccccc3c3ccccc32)C[C@H](C)N1C	Sigma intracellular receptor 2 (Rattus norvegicus, UniProt Q5U3Y7)	6.64

P: C[C@H]1CN(CCCN(c2ccccc2)c2ccccc2)C[C@H](C)N1
Q: C[C@H]1CN(CCCn2c3ccccc3c3cc(N)ccc32)C[C@H](C)N1
q: Problem: Given the entries P and Q , determine which has the lower reported pKi. Could you answer with the label of the item you picked?
a: Q
(Q: 5.78, P: 6.45)

Measured values drawn from ChEMBL document CHEMBL1132454 for this set.
